// growth inhibition lookup, one value per entry
test: NCI Yeast Anticancer Drug Screen. Data for the rad50EPP+ strain (AID 151);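 also: 0% = growth of vehicle-treated control cultures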; settings: S. cerevisiae rad50 mutant strain, at 3.7 µM, hits give high values
Compounds without any hit were thinned out: in the full panel of roughly 79,000, 15% have a hit.
Express it in %; write the number only.

Data request: Give me measured growth inhibition, please, for this compound: Cc1cccc(/C=N/NC(=S)N2CCCC2)n1
Data returned: -21

***
Data request: Give me measured growth inhibition, please, for this compound: Oc1ccc(-c2nc(-c3ccc(F)cc3)c(-c3ccc4ccccc4n3)[nH]2)cc1
Data returned: -37

Data request: Give me measured growth inhibition, please, for this compound: COc1cc(CSc2ccc(O)cc2)cc(O)c1O
Data returned: -4

Data request: Give me measured growth inhibition, please, for this compound: O=c1ccc(=O)n(-c2ccccc2)[nH]1
Data returned: -5

Data request: Give me measured growth inhibition, please, for this compound: CC(O)=NC(Cc1ccc2ccccc2c1)C(O)=NC(Cc1ccc(Cl)cc1)C(O)=NC(Cc1c[nH]c2ccccc12)C(O)=NC(CO)C(O)=NC(Cc1ccc(O)cc1)C(O)=NC(CCCN=C(N)N)C(O)=NC(CC(C)C)C(O)=NC(CCCN=C(N)N)C(=O)N1CCCC1C(O)=NC(C)C(=N)O (configuration not stated)
Data returned: 2

Data request: Give me measured growth inhibition, please, for this compound: COC(=O)/C=C(/C(=O)OC)C(Cl)(Cl)Cl
Data returned: -9

Hello, the source for this data is PubChem BioAssay (NCI), in case you need it.
